Target: CDK2/Cyclin D1 (Homo sapiens)
Construct: Full-length kinases were obtained as plasmids cloned in frame with a terminal NanoLuc-fusion; CS1810C118 (CCND1)
Test: NanoBRET
Details: read-out: NanoBRET EC50 ± SEM CDK2/Cyclin D1
Measurement Kind: pEC50
Numbers only, as −log10 of the molar value.

Worked examples follow.
- COC(=O)c1cc(Nc2ccnc(NCc3ccc(NC(=O)OC(C)(C)C)cc3)n2)[nH]n1 [21i]: 4.47
- CC(C)OC(=O)c1cc(Nc2ccnc(NCc3ccc(NC(=O)OC(C)(C)C)cc3)n2)n[nH]1 [42d]: 5.31
- CC(C)(C)OC(=O)Nc1ccc(CNc2nccc(Nc3cc(C(=O)OC(C)(C)C)[nH]n3)n2)cc1 [43d]: 5.51

Incoming: # lookup: pEC50 of N#CCc1ccc(Nc2nccc(Nc3cc(C4CC4)[nH]n3)n2)cc1 [compound 1, reference compound]
Outgoing: 7.41

###

Biological target: FES (Homo sapiens, UniProt P07332)
Construct: purchased in-house DSF panel (SGC Frankfurt)
Sequence (P07332 whole entry): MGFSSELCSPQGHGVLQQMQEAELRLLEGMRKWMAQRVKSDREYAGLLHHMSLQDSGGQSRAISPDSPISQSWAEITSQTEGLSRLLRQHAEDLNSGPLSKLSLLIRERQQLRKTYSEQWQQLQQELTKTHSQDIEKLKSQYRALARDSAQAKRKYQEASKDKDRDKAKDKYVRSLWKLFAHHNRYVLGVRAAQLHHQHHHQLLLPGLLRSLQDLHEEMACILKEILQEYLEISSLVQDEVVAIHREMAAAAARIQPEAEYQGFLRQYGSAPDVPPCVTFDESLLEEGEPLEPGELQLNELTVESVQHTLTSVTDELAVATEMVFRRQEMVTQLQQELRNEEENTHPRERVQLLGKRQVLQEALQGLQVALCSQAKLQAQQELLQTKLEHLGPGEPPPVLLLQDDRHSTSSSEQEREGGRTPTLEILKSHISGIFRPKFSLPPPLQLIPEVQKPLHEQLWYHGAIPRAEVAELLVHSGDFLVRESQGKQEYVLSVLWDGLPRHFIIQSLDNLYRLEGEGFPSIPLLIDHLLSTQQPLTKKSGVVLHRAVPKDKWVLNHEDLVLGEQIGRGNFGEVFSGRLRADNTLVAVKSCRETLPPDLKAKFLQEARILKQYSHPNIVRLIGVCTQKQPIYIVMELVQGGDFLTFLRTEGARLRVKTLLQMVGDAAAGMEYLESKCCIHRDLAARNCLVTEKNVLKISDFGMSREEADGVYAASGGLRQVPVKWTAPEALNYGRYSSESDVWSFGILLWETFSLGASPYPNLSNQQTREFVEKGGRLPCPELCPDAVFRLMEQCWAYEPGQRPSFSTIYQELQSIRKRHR
Experiment: DSF
Assay type: binding
Description: Recombinant protein kinase domains with a concentration of 2 μM were mixed with a 10 μM compound solution in DMSO, 20 mM HEPES, pH 7.5, and 500 mM NaCl. SYPRO Orange (5000×, Invitrogen) was added as a fluorescence probe (1 µl per mL). Subsequently, temperature-dependent protein unfolding profiles were measured, using the QuantStudio™ 5 realtime PCR machine (Thermo Fisher, Waltham, MA, USA). […] The temperature was raised with a step rate of 3 °C per minute. […]
Measurement Kind: ΔTm FES (°C)
One number for each entry, in °C.

* CC(C)(C)OC(=O)Nc1ccc(CNc2nccc(Nc3cc(C(=O)OC(C)(C)C)[nH]n3)n2)cc1 [43d] | 1.1

Go through the items and report each one's ΔTm FES.
1. CC(C)OC(=O)c1cc(Nc2ccnc(NCc3ccc(NC(=O)OC(C)(C)C)cc3)n2)n[nH]1 [42d]
2. COC(=O)c1cc(Nc2ccnc(NCc3ccc(NC(=O)OC(C)(C)C)cc3)n2)[nH]n1 [21i]
3. COC(=O)c1cc(Nc2ccnc(NCCOCCNC(=O)OC(C)(C)C)n2)[nH]n1 [21d]

Outgoing:
1: 0.1; 2: 0.0; 3: 1.5

Incoming: # lookup: ΔTm FES of N#CCc1ccc(Nc2nccc(Nc3cc(C4CC4)[nH]n3)n2)cc1 [compound 1, reference compound]
Outgoing: 4.5

###

Biological target: MELK (Homo sapiens, UniProt Q14680)
Construct: purchased in-house DSF panel (SGC Frankfurt)
Sequence (Q14680 whole entry): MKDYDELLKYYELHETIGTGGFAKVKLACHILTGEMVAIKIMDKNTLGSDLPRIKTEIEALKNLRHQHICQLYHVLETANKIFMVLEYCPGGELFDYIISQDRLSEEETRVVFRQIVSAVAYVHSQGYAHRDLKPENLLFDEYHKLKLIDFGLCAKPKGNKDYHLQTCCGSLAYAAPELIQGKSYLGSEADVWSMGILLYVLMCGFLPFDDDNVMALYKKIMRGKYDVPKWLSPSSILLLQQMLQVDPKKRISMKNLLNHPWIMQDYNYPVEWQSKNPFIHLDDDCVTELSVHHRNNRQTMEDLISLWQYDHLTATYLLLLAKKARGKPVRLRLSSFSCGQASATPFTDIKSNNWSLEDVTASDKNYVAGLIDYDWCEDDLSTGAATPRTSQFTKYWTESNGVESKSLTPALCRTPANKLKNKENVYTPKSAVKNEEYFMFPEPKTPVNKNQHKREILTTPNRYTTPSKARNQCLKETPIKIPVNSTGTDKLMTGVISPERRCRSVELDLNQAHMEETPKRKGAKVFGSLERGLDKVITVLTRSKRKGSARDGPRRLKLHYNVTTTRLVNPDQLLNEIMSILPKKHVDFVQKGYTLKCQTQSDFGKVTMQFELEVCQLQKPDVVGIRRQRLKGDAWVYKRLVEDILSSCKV
Experiment: DSF
Type: binding
Task for the reader: assign each of the following molecules its reported ΔTm MELK.

Worked examples follow.
• CC(C)(C)OC(=O)Nc1ccc(CNc2nccc(Nc3cc(C(=O)OC(C)(C)C)[nH]n3)n2)cc1 [43d] = 0.2 °C
• COC(=O)c1cc(Nc2ccnc(NCc3ccc(NC(=O)OC(C)(C)C)cc3)n2)[nH]n1 [21i] = 0.9 °C
• COC(=O)c1cc(Nc2ccnc(NCCOCCNC(=O)OC(C)(C)C)n2)[nH]n1 [21d] = 0.8 °C
• CC(C)OC(=O)c1cc(Nc2ccnc(NCc3ccc(NC(=O)OC(C)(C)C)cc3)n2)n[nH]1 [42d] = -0.8 °C
• N#CCc1ccc(Nc2nccc(Nc3cc(C4CC4)[nH]n3)n2)cc1 [compound 1, reference compound] = 9.8 °C

Read the next record carefully.
Incoming: # lookup: ΔTm MELK of CN[C@@H]1C[C@H]2O[C@@](C)([C@@H]1OC)n1c3ccccc3c3c4c(c5c6ccccc6n2c5c31)C(=O)NC4 [staurosporine, reference compound]
Outgoing: 13.8 °C

###

Target: VRK1 (Homo sapiens, UniProt Q99986)
Construct: purchased in-house DSF panel (SGC Frankfurt)
Sequence (Q99986 whole entry): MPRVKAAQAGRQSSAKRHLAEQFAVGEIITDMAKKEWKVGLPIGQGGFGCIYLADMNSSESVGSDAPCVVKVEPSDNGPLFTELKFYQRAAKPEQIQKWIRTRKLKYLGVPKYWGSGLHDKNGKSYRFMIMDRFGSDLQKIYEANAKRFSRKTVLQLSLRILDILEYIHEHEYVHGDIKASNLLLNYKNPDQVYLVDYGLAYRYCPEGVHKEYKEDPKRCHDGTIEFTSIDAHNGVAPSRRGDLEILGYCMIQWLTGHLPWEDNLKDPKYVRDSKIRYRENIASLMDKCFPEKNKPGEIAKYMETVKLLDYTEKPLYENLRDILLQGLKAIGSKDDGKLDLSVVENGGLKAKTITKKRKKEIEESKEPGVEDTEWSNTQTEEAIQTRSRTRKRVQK
Assay: DSF
Type: binding
// boundary case: ΔTm VRK1 equal to 1 °C maps to not fulfilled; strictly smaller maps to fulfilled

* COC(=O)c1cc(Nc2ccnc(NCc3ccc(NC(=O)OC(C)(C)C)cc3)n2)[nH]n1 [21i] | not fulfilled
* N#CCc1ccc(Nc2nccc(Nc3cc(C4CC4)[nH]n3)n2)cc1 [compound 1, reference compound] | not fulfilled

Incoming: Consider the compound CC(C)(C)OC(=O)Nc1ccc(CNc2nccc(Nc3cc(C(=O)OC(C)(C)C)[nH]n3)n2)cc1 [43d] . Is its ΔTm VRK1 strictly less than 1 °C?
Outgoing: fulfilled

Incoming: How about this compound: CC(C)OC(=O)c1cc(Nc2ccnc(NCc3ccc(NC(=O)OC(C)(C)C)cc3)n2)n[nH]1 [42d]
Outgoing: fulfilled

###

Target: EPHA2 (Homo sapiens, UniProt P29317)
Construct: purchased in-house DSF panel (SGC Frankfurt)
Sequence (P29317 596-900): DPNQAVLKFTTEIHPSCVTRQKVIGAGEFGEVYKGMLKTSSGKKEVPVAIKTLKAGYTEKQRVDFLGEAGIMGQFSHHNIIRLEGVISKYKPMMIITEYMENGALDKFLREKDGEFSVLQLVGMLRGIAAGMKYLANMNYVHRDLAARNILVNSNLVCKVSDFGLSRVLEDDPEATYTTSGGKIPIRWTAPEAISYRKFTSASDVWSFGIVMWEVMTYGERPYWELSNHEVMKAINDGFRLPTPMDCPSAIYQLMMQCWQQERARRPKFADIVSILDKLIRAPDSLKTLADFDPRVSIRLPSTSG
Experiment: DSF
Format: binding
Measurement Kind: ΔTm EPHA2 (°C)
Give bare numbers, in °C.

Worked examples follow.
* N#CCc1ccc(Nc2nccc(Nc3cc(C4CC4)[nH]n3)n2)cc1 [compound 1, reference compound] | 8.4
* COC(=O)c1cc(Nc2ccnc(NCCOCCNC(=O)OC(C)(C)C)n2)[nH]n1 [21d] | 0.2
* CC(C)OC(=O)c1cc(Nc2ccnc(NCc3ccc(NC(=O)OC(C)(C)C)cc3)n2)n[nH]1 [42d] | 0.6
* COC(=O)c1cc(Nc2ccnc(NCc3ccc(NC(=O)OC(C)(C)C)cc3)n2)[nH]n1 [21i] | 0.4

Read the next record carefully.
Incoming: # lookup: ΔTm EPHA2 of CC(C)(C)OC(=O)Nc1ccc(CNc2nccc(Nc3cc(C(=O)OC(C)(C)C)[nH]n3)n2)cc1 [43d]
Outgoing: 1.3

###

Biological target: CDK2/Cyclin A2 (Homo sapiens)
Construct: Full-length kinases were obtained as plasmids cloned in frame with a terminal NanoLuc-fusion; CCNA2: 'Promega', no number
Assay: NanoBRET
Conditions: read-out: NanoBRET EC50 ± SEM CDK2/Cyclin A2
Measurement Kind: EC50 (µM)
Answers are plain numbers, in µM.

Worked examples follow.
* CC(C)OC(=O)c1cc(Nc2ccnc(NCc3ccc(NC(=O)OC(C)(C)C)cc3)n2)n[nH]1 [42d] | 2.84
* COC(=O)c1cc(Nc2ccnc(NCc3ccc(NC(=O)OC(C)(C)C)cc3)n2)[nH]n1 [21i] | 11.7
* CC(C)(C)OC(=O)Nc1ccc(CNc2nccc(Nc3cc(C(=O)OC(C)(C)C)[nH]n3)n2)cc1 [43d] | 1.52

Incoming: # lookup: EC50 of N#CCc1ccc(Nc2nccc(Nc3cc(C4CC4)[nH]n3)n2)cc1 [compound 1, reference compound]
Outgoing: 0.0281

###

Task for the reader: assign each of the following molecules its reported ΔTm PKMYT1.
Biological target: PKMYT1 (Homo sapiens, UniProt Q99640)
Construct: purchased in-house DSF panel (SGC Frankfurt)
Sequence (Q99640 75-362): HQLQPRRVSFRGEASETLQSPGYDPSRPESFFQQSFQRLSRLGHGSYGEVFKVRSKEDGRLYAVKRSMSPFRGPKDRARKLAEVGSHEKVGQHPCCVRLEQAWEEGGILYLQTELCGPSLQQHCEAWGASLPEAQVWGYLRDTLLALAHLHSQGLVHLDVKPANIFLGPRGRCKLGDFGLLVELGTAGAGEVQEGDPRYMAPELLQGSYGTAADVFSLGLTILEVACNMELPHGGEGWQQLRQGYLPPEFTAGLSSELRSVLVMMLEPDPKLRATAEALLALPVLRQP
Assay: DSF
Type: binding

Worked examples follow.
- COC(=O)c1cc(Nc2ccnc(NCCOCCNC(=O)OC(C)(C)C)n2)[nH]n1 [21d]: 1.0 °C
- CC(C)(C)OC(=O)Nc1ccc(CNc2nccc(Nc3cc(C(=O)OC(C)(C)C)[nH]n3)n2)cc1 [43d]: -2.0 °C

Go through the items and report each one's ΔTm PKMYT1.
1. N#CCc1ccc(Nc2nccc(Nc3cc(C4CC4)[nH]n3)n2)cc1 [compound 1, reference compound]
2. COC(=O)c1cc(Nc2ccnc(NCc3ccc(NC(=O)OC(C)(C)C)cc3)n2)[nH]n1 [21i]
3. CC(C)OC(=O)c1cc(Nc2ccnc(NCc3ccc(NC(=O)OC(C)(C)C)cc3)n2)n[nH]1 [42d]

Outgoing:
["1.0 °C", "0.2 °C", "-3.2 °C"]

###

Target: ABL1 (Homo sapiens)
Construct: purchased in-house DSF panel (SGC Frankfurt)
Sequence (P00519 229-500): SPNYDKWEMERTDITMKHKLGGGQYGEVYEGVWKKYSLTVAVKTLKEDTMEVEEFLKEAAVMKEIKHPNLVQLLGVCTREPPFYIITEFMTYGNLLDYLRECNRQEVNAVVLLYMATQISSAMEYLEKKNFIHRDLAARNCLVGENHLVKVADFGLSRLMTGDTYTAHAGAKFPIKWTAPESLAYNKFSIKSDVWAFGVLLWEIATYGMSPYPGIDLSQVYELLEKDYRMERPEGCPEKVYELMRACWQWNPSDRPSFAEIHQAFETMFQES
Experiment: DSF
Format: binding
Task for the reader: assign each of the following compounds its reported ΔTm ABL1.
Answers are plain numbers, in °C.

Worked examples follow.
- COC(=O)c1cc(Nc2ccnc(NCc3ccc(NC(=O)OC(C)(C)C)cc3)n2)[nH]n1 [21i]: 0.7
- CC(C)OC(=O)c1cc(Nc2ccnc(NCc3ccc(NC(=O)OC(C)(C)C)cc3)n2)n[nH]1 [42d]: 1.0
- CC(C)(C)OC(=O)Nc1ccc(CNc2nccc(Nc3cc(C(=O)OC(C)(C)C)[nH]n3)n2)cc1 [43d]: 1.6
- N#CCc1ccc(Nc2nccc(Nc3cc(C4CC4)[nH]n3)n2)cc1 [compound 1, reference compound]: 8.7

Read the next record carefully.
Incoming: # lookup: ΔTm ABL1 of COC(=O)c1cc(Nc2ccnc(NCCOCCNC(=O)OC(C)(C)C)n2)[nH]n1 [21d]
Outgoing: 1.2

meta.source: paper PMC9736855
